Attribute: IC50
# TARGET OR SYSTEM: HPK1 (SLP76 phosphorylation at Ser376 in Jurkat and EL-4 cells) (Homo sapiens, UniProt Q92918)
# Sequence (Q92918 whole entry, looked up): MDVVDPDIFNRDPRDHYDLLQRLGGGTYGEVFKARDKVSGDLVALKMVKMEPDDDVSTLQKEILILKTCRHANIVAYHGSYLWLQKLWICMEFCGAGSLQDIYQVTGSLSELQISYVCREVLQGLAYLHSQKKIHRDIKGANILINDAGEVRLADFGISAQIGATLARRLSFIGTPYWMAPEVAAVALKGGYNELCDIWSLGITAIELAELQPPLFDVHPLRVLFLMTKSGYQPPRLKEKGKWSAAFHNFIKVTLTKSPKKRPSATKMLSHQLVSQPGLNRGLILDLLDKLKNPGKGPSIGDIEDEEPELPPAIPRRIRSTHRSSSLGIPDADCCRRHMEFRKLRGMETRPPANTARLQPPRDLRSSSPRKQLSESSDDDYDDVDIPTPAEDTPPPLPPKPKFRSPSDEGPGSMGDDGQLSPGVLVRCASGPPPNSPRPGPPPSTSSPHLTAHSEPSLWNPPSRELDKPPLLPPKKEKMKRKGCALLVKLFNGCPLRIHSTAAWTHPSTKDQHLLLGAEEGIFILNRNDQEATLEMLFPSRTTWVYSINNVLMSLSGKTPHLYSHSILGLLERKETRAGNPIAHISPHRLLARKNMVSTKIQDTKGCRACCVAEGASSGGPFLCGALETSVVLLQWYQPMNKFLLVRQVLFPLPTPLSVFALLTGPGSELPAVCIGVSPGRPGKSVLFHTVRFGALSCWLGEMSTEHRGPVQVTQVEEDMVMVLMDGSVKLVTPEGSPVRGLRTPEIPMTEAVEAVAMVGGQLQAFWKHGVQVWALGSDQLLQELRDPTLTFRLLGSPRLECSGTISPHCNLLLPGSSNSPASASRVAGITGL
# Assay type: cell-based
# SETTINGS: αCD3/αCD28 Dynabeads stimulated cells, pSLP76 (Ser376) detection; read-out: HPK1 pSLP76 IC50
ASSAY METRIC: IC50

compound=Cc1cc(Nc2ncc3c(n2)CN(c2cnc4c(c2C)NCCO4)CC3)ccc1NC(=O)CN(C)C assay_metric=IC50 measured_value="< 500 nM"
compound=Cc1c(N2CCc3cnc(Nc4ccc5c(c4)CN(C)C5)nc3C2)cnc2c1NCCO2 assay_metric=IC50 measured_value="< 500 nM"
compound=Cc1c(N2CCc3cnc(Nc4ccc(C5CCN(C)CC5)cc4)nc3C2)cnc2c1NCCO2 assay_metric=IC50 measured_value="500 to 1000 nM"
compound=Cc1c(N2CCc3cnc(Nc4ccc(CS(=O)(=O)CC5(C)COC5)cc4)nc3C2)cnc2c1NCCO2 assay_metric=IC50 measured_value="< 500 nM"
compound=Cc1c(N2CCc3cnc(Nc4ccc(CC(=O)N5CC(N6CCOCC6)C5)cc4)nc3C2)cnc2c1NCCO2 assay_metric=IC50 measured_value="< 500 nM"
compound=COCCOc1ccc(Nc2ncc3c(n2)CN(c2cnc4c(c2C)NCCO4)CC3)cc1CO assay_metric=IC50 measured_value="500 to 1000 nM"
compound=Cc1c(N2CCc3cnc(Nc4ccc(NCCN5CCOCC5)c(F)c4)cc3C2)cnc2c1NCCO2 assay_metric=IC50 measured_value="< 500 nM"
compound=Cc1c(N2CCc3cnc(Nc4ccc(CN5CCCC5)cc4)nc3C2)cnc2c1NCCO2 assay_metric=IC50 measured_value="> 1000 nM"
compound=Cc1c(N2CCc3cnc(Nc4ccc(CC(=O)N5CC(F)(F)C5)cc4)nc3C2)cnc2c1NCCO2 assay_metric=IC50 measured_value="< 500 nM"
compound=Cc1cnsc1N1CCc2cnc(Nc3cnc4c(c3)CN(C)CC4)nc2C1 assay_metric=IC50 measured_value="> 1000 nM"
compound=Cc1c(N2CCc3cnc(Nc4ccc(Cn5ccnc5)cc4)nc3C2)cnc2c1NCCO2 assay_metric=IC50 measured_value="< 500 nM"
compound="Cc1c(N2CCc3cnc(Nc4cnc5c(c4)CC(O)CC5)nc3C2)cnc2c1NCCO2 (stereo not shown)" assay_metric=IC50 measured_value="500 to 1000 nM"
compound=Cc1c(N2CCc3cnc(Nc4ccc(CC(=O)N5CC(C)(O)C5)cc4)nc3C2)cnc2c1NCCO2 assay_metric=IC50 measured_value="< 500 nM"
compound=Cc1c(N2CCc3cnc(Nc4ccc5c(c4)CS(=O)(=O)C5)nc3C2)cnc2c1NCCO2 assay_metric=IC50 measured_value="< 500 nM"
compound=Cc1cc(Nc2cc3c(cn2)CCN(c2cnc4c(c2C)NCCO4)C3)ccc1C(=O)NCCN1CCOCC1 assay_metric=IC50 measured_value="500 to 1000 nM"
compound=COC(=O)Nc1ccc(Nc2ncc3c(n2)CN(c2cnc4c(c2C)NCCO4)CC3)cc1 assay_metric=IC50 measured_value="< 500 nM"
compound=Cc1c(N2CCc3cnc(Nc4cc5n(n4)CC(=O)N(CC(F)F)CC5)cc3C2)cnc2c1NCCO2 assay_metric=IC50 measured_value="< 500 nM"
compound=Cc1c(N2CCc3cnc(Nc4ccnc(N5CCOCC5)c4)nc3C2)cnc2c1NCCO2 assay_metric=IC50 measured_value="< 500 nM"
compound=Cc1cc(Nc2cc3c(cn2)CCN(c2cnc4c(c2C)NCCO4)C3)ccc1CS(C)(=O)=O assay_metric=IC50 measured_value="< 500 nM"
compound=CNC(=O)c1ccc(Nc2ncc3c(n2)CN(c2cnc4c(c2Cl)NCCO4)CC3)cc1C assay_metric=IC50 measured_value="500 to 1000 nM"
compound=Cc1c(N2CCc3cnc(Nc4ccc(CS(=O)(=O)C5CC5)nc4)nc3C2)cnc2c1NCCO2 assay_metric=IC50 measured_value="< 500 nM"
compound=CC(=O)Nc1ccc(Nc2ncc3c(n2)CN(c2cnc4c(c2C)NCCO4)CC3)cn1 assay_metric=IC50 measured_value="500 to 1000 nM"
